Provenance of the data: the NIST ThermoML archive (doi:10.1021/je100888h)

Reported mass density by item:
details: 303.15 K; 101 kPa; Liquid
observation type: mass density (kg/m3)

[[record]]
compound = "Cc1ccccc1 [toluene]"
readout_value = 857.47

[[record]]
compound = "CCCCCCCC [octane]"
readout_value = 694.52

[[record]]
compound = "Cc1cccc(O)c1 [3-methylphenol]"
readout_value = 1025.95

[[record]]
compound = "Cc1ccccc1O [2-methylphenol]"
readout_value = 1036.94

[[record]]
compound = "Cc1ccc(O)cc1 [4-methylphenol]"
readout_value = 1025.9

